I'd appreciate it if you could supply thermal shift delta Tm values for the items below.
# Tested on: LOC_OS04G35114-cb001;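 note: purified Escherichia coli-expressed rice kinase domain construct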
# Assay method text: thermal shift delta Tm vs DMSO control; higher = stronger stabilization (binding)
# Conditions used: 12.5 µM; protein concentration 2 µM
Numeric answer only, unit °C assumed.

Hello, please tell me recorded thermal shift delta Tm for this one: Cc1ccc(S(=O)(=O)/C=C/C#N)cc1
0.08

Look up thermal shift delta Tm of Cc1cn(-c2cc(NC(=O)c3ccc(C)c(Nc4nccc(-c5cnccn5)n4)c3)cc(C(F)(F)F)c2)cn1 and report it.
0.13

Specify thermal shift delta Tm for O=C(NCc1ccccc1)c1csc(Nc2ccncn2)n1 and stop.
1.56

Supply thermal shift delta Tm value. Item: COc1cc2c(c(OC)c1OC)-c1c(cc3c(c1OC)OCO3)CC(C)C(C)C2 (centres undefined) [Schisandrin B (Sch B)]
0.63

Give thermal shift delta Tm for the following compound: CC(C)Oc1ccc(-c2nn([C@@H](C)c3oc4ccc(F)cc4c(=O)c3-c3cccc(F)c3)c3ncnc(N)c23)cc1F
1.09

Query thermal shift delta Tm for Cn1cc(-c2ccc(F)c(C(F)(F)F)c2)nc1C1CCN(c2ncnc3[nH]ncc23)CC1
0.97

Look up and report measured thermal shift delta Tm for this entry: NC(=O)c1cnc(N[C@@H]2CCCC[C@@H]2N)nc1Nc1cccc(-n2nccn2)c1
1.31

Supply reported thermal shift delta Tm belonging to this compound: CN(C)CCOc1ccc(-c2nc(-c3ccncc3)c(-c3ccc4c(c3)CC/C4=N\O)[nH]2)cc1
0.33

Name the recorded thermal shift delta Tm of the item CC1=C(C(=O)Nc2ccc3[nH]ncc3c2)C(c2ccc(F)cc2)NC(=O)N1 (centres undefined) in your answer.
0.48

Consider the compound CNC(=O)c1cccc(-c2ccc3c(N4CCOC[C@@H]4C)nc(N4CCOC[C@@H]4C)nc3n2)c1 and give its recorded thermal shift delta Tm.
-0.19

Consider the compound Nc1ccc(C(=O)Nc2cccc(-c3nc(N4CCOCC4)c4oc5ncccc5c4n3)c2)cn1 . State its measured thermal shift delta Tm.
0.9

Supply measured thermal shift delta Tm of Cn1cnc(N)c2ncnc1-2 in your reply.
0.91

Indicate the recorded thermal shift delta Tm value for this compound: CCOc1cc2ncc(C#N)c(Nc3ccc(F)c(Cl)c3)c2cc1NC(=O)/C=C/CN(C)C [Pelitinib (EKB-569)]
5.5

Quickly give me recorded thermal shift delta Tm for CC(C)NC(=O)C1CCC(n2c(NC(=O)c3ccc(F)cc3)nc3ccc(CN4CCC(C(C)(C)O)CC4)cc32)CC1 (centres undefined)
6.28

Query thermal shift delta Tm for C=CC(=O)Nc1cccc(Nc2nc(Nc3ccc(NC4CN(CCF)C4)cc3OC)ncc2C(F)(F)F)c1
0.98

Tell me measured thermal shift delta Tm for CNC(=O)c1cc(Oc2ccc(NC(=O)Nc3ccc(Cl)c(C(F)(F)F)c3)cc2)ccn1 [Sorafenib] please.
1.71

Answer with the recorded thermal shift delta Tm of CCN(CC)CCCC(C)Nc1nc(C)cc(Nc2ccc3nc(C)cc(N)c3c2)n1 (centres undefined) only.
0.62

Answer with reported thermal shift delta Tm of CC(C)NC(=O)COc1cccc(-c2nc(Nc3ccc4[nH]ncc4c3)c3ccccc3n2)c1
1.5

Find the measured thermal shift delta Tm of CC(C)[C@H](CO)Nc1nc(Nc2cccc(Cl)c2)c2ncn(C(C)C)c2n1 and report it.
6.09

Quickly give me recorded thermal shift delta Tm for CN(C)C[C@@H]1CCn2cc(c3ccccc32)C2=C(C(=O)NC2=O)c2cn(c3ccccc23)CCO1
6.19

// Input: CS(=O)(=O)CCNCc1ccc(-c2ccc3ncnc(Nc4ccc(OCc5cccc(F)c5)c(Cl)c4)c3c2)o1 [Lapatinib] . Output its thermal shift delta Tm only.
2.03

Identify thermal shift delta Tm associated with the compound O=C1CCc2c(Oc3ccc4c(c3)[C@@H]3[C@H](O4)[C@H]3c3nc4cc(C(F)(F)F)ccc4[nH]3)ccnc2N1
0.81

Give the reported thermal shift delta Tm for this compound. Cc1cn(-c2cc(NC(=O)c3ccc(C)c(Nc4nccc(-c5cccnc5)n4)c3)cc(C(F)(F)F)c2)cn1
-0.37

Give the value of thermal shift delta Tm reported for the following: CCN(CC)CCCC(C)Nc1ccnc2cc(Cl)ccc12 (centres undefined) [Chloroquine Phosphate]
0.59

Origin of values: the supplement of paper PMC9694430
